Source of measurements: patent US20080102065A1

target_or_test_system: T1, cynomolgus monkey EpoR (cynoEpoR) (cynomolgus monkey, UniProt A0A2K5WKK4 25-250)
T1 construct: Soluble protein (coated in ELISA, analyte in SPR)
T1 sequence: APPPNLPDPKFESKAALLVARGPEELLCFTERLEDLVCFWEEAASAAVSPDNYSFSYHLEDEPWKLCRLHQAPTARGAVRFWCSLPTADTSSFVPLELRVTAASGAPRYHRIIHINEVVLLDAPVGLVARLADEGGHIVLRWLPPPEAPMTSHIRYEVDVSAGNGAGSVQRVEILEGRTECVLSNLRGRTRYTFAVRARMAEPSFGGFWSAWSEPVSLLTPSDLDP
test_summary: SPR, Biacore T100; scFv-Fc captured on anti-human IgG Fc CM5 chip, EpoR as analyte; 1:1 fit;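 further: measured at 25 °C in HBS-EP buffer with 0.1 mg/ml BSA, flowed at 50 µl/min, 1 min association then dissociation (10 min human, 5 min cyno EpoR)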
measurement_type: koff (s⁻¹)
Write the number in s⁻¹ without appending the unit.

- binder: "Mxb 295 (clone 295 scFv-Fc protein) (Fc fusion, Tested as scFv-Fc (maxibody) with an Fc derived from human IgG1) VH: EVQLVESGGGLVQPGGSLRLSCAASGFTFSSYAMSWVRQAPGKGLEWVSGISGSGSSEGGTYYADSVKGRFTLSRDNSKNTLYLQMNSLRAEDTALYYCVKDRPSRYSFGYYFDYWGRGTLVTVSS VL: LPVLTQPPSVSVSPGQTASIACSGNKLGDKYVSWYQQKPGQSPLLVIYQDTKRPSGIPERFSGSNSGNTATLTISGTQAMDEADYYCQAWDSSTDVVFGGGTKLTVL"
  output_unit: "s⁻¹"
  reading: 0.0221
- binder: "Mxb 330 (clone 330 scFv-Fc protein) (Fc fusion, Tested as scFv-Fc (maxibody) with an Fc derived from human IgG1) VH: EVQLVESGGGLVQPGGSLRLSCAVSGFTFSKYWMTWVRQAPGKGLEWVANIKPDGSEKYYVESVKGRFTISRDNAKNSVYLQMNSVRAEDTAVYYCARVSRGGSFSDWGQGTLVTVSS VL: QSALTQPPSASGSPGQSVTISCTGTSSDVGAYNYVSWYQQHPGKAPKLMIYEVARRPSGVPDRFSGSKSGNTASLTVSGLQAEDEADYYCSSYAGSNNFAVFGRGTKLTVL"
  output_unit: "s⁻¹"
  reading: 0.0965

Okay, next one:
Record request: koff value, item Mxb 13 (clone 13 scFv-Fc protein) (Fc fusion, Tested as scFv-Fc (maxibody) with an Fc derived from human IgG1) VH: QVQLQQSGGGVVQPGRSLRLSCAASGFTFSDYAMHWVRQAPGKGLEWVAVISNHGKSTYYADSVKGRFTISRDNSKHMLYLQMNSLRADDTALYYCARDIALAGDYWGQGTLVTVSA VL: DIQMTQSPSSLSASVGDRVTITCRASQSISSYLNWYQQLPGKVPKLLIYGASKLQSGVPSRFSGSGSGTDFTLTISSLQPEDFATYYCLQDYNYPLTFGPGTRLEIK
0.0597
